assay: Toxicity liver stage against HepG2, at 10uM; format: cell-based; set-up: test concentration 10 uM, cell line HepG2-A16-CD81EGFP; settings: human, HepG2-A16-CD81EGFP cells; read-out: INHIBITION
PROPERTY: cytotoxicity at 10 µM (%)
Numeric answer only, unit % assumed.

Quick one: give measured cytotoxicity at 10 µM for CCn1ncc2c1CCCC2NCc1cc(Cl)c(OC)c(OC)c1 (stereo not drawn)
24.4

Find the measured cytotoxicity at 10 µM of "Cn1cc(NC(=O)c2cccc(C(F)(F)F)c2)c(=O)n(C)c1=O" and report it.
0.49

Identify the reported cytotoxicity at 10 µM for the following entry. "O=C(Cc1ccsc1)N1CCC(c2ccncc2)CC1"
8.89

Using the record for Cc1n[nH]c(C2CN(CC(=O)NCCc3ccc(F)cc3)CCO2)n1 (stereo not drawn) , state its measured cytotoxicity at 10 µM.
-8.13

Give the reported value of cytotoxicity at 10 µM for this record: O=C(CCC1CCCN(C(=O)CCN2CCCCO2)C1)N1CCCC1 (stereo not drawn)
2.11

Return value of cytotoxicity at 10 µM for input "c1ccc(OCCNCc2cccs2)nc1" , no commentary.
-3.26

Identify the reported cytotoxicity at 10 µM for the following entry. "Cc1cnn(CCNCc2nc(CNC(=O)c3ccccc3)no2)c1"
-5.92

Report cytotoxicity at 10 µM for "COC(=O)N1CCC(Nc2cccc(F)c2C(C)=O)CC1"
12.7

----------
assay: Toxicity liver stage against HepG2, at 10uM; type: cell-based; design: test concentration 10 uM, cell line HepG2-A16-CD81EGFP; details: human, HepG2-A16-CD81EGFP cells; read-out: INHIBITION
What cytotoxicity at 10 µM was measured for each of the following?
Please respond with the number in % and leave the unit unwritten.

Input COC(=O)CC1CN(Cc2c(Cl)ccc3cccnc23)CCO1 (centres undefined) , output reported cytotoxicity at 10 µM.
8.36

Query cytotoxicity at 10 µM for CC(C)n1ccc2c(C(=O)NC3CN4CCC3CC4)cccc21 (centres undefined)
-54.2

Return value of cytotoxicity at 10 µM for input "C[C@@H]1CN(c2cc(N3CCC(O)CC3)ncn2)C[C@@]1(O)C1CC1" , no commentary.
-1.79

Please indicate cytotoxicity at 10 µM recorded for "O=C(N[C@@H]1CC[C@@H](N2CCOCC2)[C@@H]1O)c1cnn2cccnc12"
-27.1

Entry "Cc1ccc(S(=O)(=O)N(C)CC(N)=O)c(Cl)c1" needs its cytotoxicity at 10 µM filled in; supply it.
5.79

// fetch cytotoxicity at 10 µM given entry "CN(C)C(=O)c1c[nH]nc1C1CCN(S(=O)(=O)c2cccc(Cl)c2)CC1"
1.22

Input "CC(C)CS(=O)(=O)NC(=O)c1ccc2c(c1)ncn2C" , output reported cytotoxicity at 10 µM.
-9.94

In one line, give reported cytotoxicity at 10 µM of the entry "Cc1ccccc1OC1CCN(CC(=O)Nc2cn(C)nc2C)CC1" .
-0.0825

Dear colleague, please send me the reported cytotoxicity at 10 µM for O=C(c1cccc(CO)n1)N1CCOC(c2ccc(Cl)c(Cl)c2)C1 (centres undefined) when you can.
-10.4

Give reported cytotoxicity at 10 µM value for "CCC(=O)Nc1ccc2c(c1)CN(C(=O)c1ccco1)CC2"
5.84

Return reported cytotoxicity at 10 µM. Input molecule: Cn1ccnc1CCC1CCCCN1Cc1cnc(N2CCCC2)nc1 (centres undefined)
1.43

Give me measured cytotoxicity at 10 µM, please, for this molecule: c1ccc2nc(CN3CCCC3c3noc(C4CC4)n3)ccc2c1 (centres undefined)
-5.48

Let me know recorded cytotoxicity at 10 µM for Cc1cccc2ncnc(N3CCOC(C)C3)c12 (centres undefined) , thanks.
0.00648

Tell us which cytotoxicity at 10 µM value is on record for CN(c1ncnc2c1cnn2C)C1CCCN(c2cccnn2)C1 (centres undefined)
3.93
